STUDY_SYSTEM: human orexin 1 receptor (Homo sapiens)
MEASUREMENT_DESCRIPTION: Human orexin 1 receptor radioligand binding
CONDITION_DESCRIPTION: human orexin 1 receptor; averages of 2-20 runs; read-out: hOX1 Ki
Just a reminder that ties go to Condition not met: only Ki strictly below 10 nM counts as Condition met.

{"COMPOUND": "O=C(c1c(F)cccc1-c1ncccn1)N1C[C@H]2C[C@@H](Nc3ccc(C(F)(F)F)cn3)[C@@H]1C2", "LABEL_CLASS": "Condition met"}
{"COMPOUND": "O=C(c1cccc(F)c1-c1ncc(F)cn1)N1C[C@@H]2CC[C@H]1[C@H](Oc1ccc(C(F)(F)F)cn1)C2", "LABEL_CLASS": "Condition met"}
{"COMPOUND": "O=C(c1ccc(F)cc1-c1ncccn1)N1C[C@H]2C[C@@H](Nc3ccc(Cl)cn3)[C@@H]1C2", "LABEL_CLASS": "Condition not met"}
{"COMPOUND": "Cc1cnc(-c2ncccn2)c(C(=O)N2C[C@H]3C[C@@H](Oc4ccc(C(F)(F)F)cn4)[C@@H]2C3)c1", "LABEL_CLASS": "Condition not met"}
{"COMPOUND": "O=C(c1cccc(F)c1-c1ncccn1)N1C[C@H]2C[C@@H](Nc3ccc(C(F)(F)F)cn3)[C@@H]1C2", "LABEL_CLASS": "Condition met"}
{"COMPOUND": "Cc1cnc(-n2nccn2)c(C(=O)N2C[C@H]3C[C@@H](Oc4ccc(C(F)(F)F)cn4)[C@@H]2C3)c1", "LABEL_CLASS": "Condition not met"}
{"COMPOUND": "Cc1ccc(C(=O)N2C[C@H]3C[C@@H](Nc4ccc(C(F)(F)F)cn4)[C@@H]2C3)c(-n2nccn2)n1", "LABEL_CLASS": "Condition not met"}
{"COMPOUND": "O=C(c1occc1-c1ccccc1)N1C[C@H]2C[C@@H](Nc3cnc(C(F)(F)F)cn3)[C@@H]1C2", "LABEL_CLASS": "Condition not met"}
{"COMPOUND": "O=C(c1cccc(F)c1-c1ncccn1)N1C[C@H]2C[C@@H](Nc3ncc(Cl)cn3)[C@@H]1C2", "LABEL_CLASS": "Condition met"}
{"COMPOUND": "O=C(c1ccccc1-c1ncc(F)cn1)N1C[C@H]2C[C@@H](Oc3ccc(C(F)(F)F)cn3)[C@@H]1C2", "LABEL_CLASS": "Condition met"}
{"COMPOUND": "O=C(c1ccccc1-c1ncc(F)cn1)N1C[C@H]2C[C@@H](Nc3ncc(C(F)(F)F)cn3)[C@@H]1C2", "LABEL_CLASS": "Condition not met"}
{"COMPOUND": "O=C(c1ccc(F)cc1-c1ncccn1)N1CC2CCC1C(Nc1cnc(C(F)(F)F)cn1)C2 (racemic)", "LABEL_CLASS": "Condition not met"}
{"COMPOUND": "O=C(c1cccc(F)c1-c1ncccn1)N1C[C@H]2C[C@@H](Oc3ccc(Br)cn3)[C@@H]1C2", "LABEL_CLASS": "Condition met"}
{"COMPOUND": "O=C(c1cccnc1-n1nccn1)N1C[C@H]2C[C@@H](Nc3cnc(C(F)(F)F)cn3)[C@@H]1C2", "LABEL_CLASS": "Condition not met"}
{"COMPOUND": "O=C(c1cccc(F)c1-c1ncccn1)N1C[C@H]2C[C@@H](Oc3cccc(C(F)(F)F)n3)[C@@H]1C2", "LABEL_CLASS": "Condition not met"}
{"COMPOUND": "O=C(c1c(F)cccc1-c1ncco1)N1C[C@H]2C[C@@H](Nc3ncc(C(F)(F)F)cn3)[C@@H]1C2", "LABEL_CLASS": "Condition not met"}
